# targetEntity: Human recombinant MMP-14 (Homo sapiens, UniProt P50281)
# Construct: The catalytic domain enzyme was expressed in E. coli inclusion bodies, solubilized in urea; made in house
# experimentalDetails: In vitro MMP inhibition, Ki determination (fluorogenic substrate II)
# Format: biochemical
# conditionsUsed: value in parenthesis
measuredParameter: Ki

Sample answers from the record:
CCc1ccccc1-c1noc(CCCOc2ccc(S(=O)(=O)C3(C(=O)NO)CCN(CCOC)CC3)cc2)n1
9.37 µM
O=C(NO)C1(S(=O)(=O)c2ccc(OCCCc3nc(-c4ccc(OC(F)(F)F)cc4)no3)cc2)CCN(Cc2ccccc2)CC1
> 10 µM
O=C(CCCOc1ccc(S(=O)(=O)C2(C(=O)NO)CCOCC2)cc1)Nc1ccc(OC(F)(F)F)cc1 [Example 250]
1.7 µM
O=C(NO)C1(S(=O)(=O)c2ccc(OCCCc3cccc(-c4ccccn4)c3)cc2)CCOCC1
5.15 µM
O=C(CCCOc1ccc(S(=O)(=O)C2(C(=O)NO)CCOCC2)cc1)Nc1ccc(OC(F)(F)F)cc1 [Example 228]
6.29 µM
O=C(NO)C1(S(=O)(=O)c2ccc(OCCOc3cccc(-c4ccccc4)c3)cc2)CCOCC1
> 10 µM
COc1ccc(-c2cccc(CCOc3ccc(S(=O)(=O)C4(C(=O)NO)CCOCC4)cc3)c2)cc1C
> 10 µM
CC(C)C(=O)c1cccc(CCCOc2ccc(S(=O)(=O)C3(C(=O)NO)CCOCC3)cc2)c1
5.41 µM
COCCN1CCC(C(=O)NO)(S(=O)(=O)c2ccc(OCCCc3cccc(-c4ccc(F)cc4)c3)cc2)CC1
> 10 µM
O=C(NO)C1(S(=O)(=O)c2ccc(OCCCc3cccc(Br)c3)cc2)CCOCC1
3.91 µM

Record Ki for all entries; do not skip any.
1. O=C(CCCc1ccc(S(=O)(=O)C2(C(=O)NO)CCOCC2)cc1)c1cccc(-c2ccccc2)c1
2. O=C1Nc2ccc(-c3noc(CCCOc4ccc(S(=O)(=O)C5(C(=O)NO)CCN(C6CC6)CC5)cc4)n3)cc21
3. O=C(NO)C1(S(=O)(=O)c2ccc(OCCCc3cccc(-c4ccc(Cl)cc4Cl)c3)cc2)CCOCC1

["7.94 µM", "> 10 µM", "> 10 µM"]

Batch of 5 compounds: report Ki for each.
1. Cc1ccccc1-c1cccc(CCOc2ccc(S(=O)(=O)C3(C(=O)NO)CCOCC3)cc2)c1
2. COCCN1CCC(C(=O)NO)(S(=O)(=O)c2ccc(OCCCc3nnc(-c4ccccc4C(F)(F)F)o3)cc2)CC1
3. Cc1cc(-c2cccc(CCOc3ccc(S(=O)(=O)C4(C(=O)NO)CCOCC4)cc3)c2)ccc1Cl
4. NC(=O)c1cccc(-c2noc(CCCOc3ccc(S(=O)(=O)C4(C(=O)NO)CCN(C5CC5)CC4)cc3)n2)c1
5. CC(C)c1ccc(-c2cccc(CCOc3ccc(S(=O)(=O)C4(C(=O)NO)CCOCC4)cc3)c2)cc1

1: > 10 µM; 2: > 10 µM; 3: > 10 µM; 4: > 10 µM; 5: > 10 µM

Respectfully, I request Ki for each entry included below.
1. O=C(NO)C1(S(=O)(=O)c2ccc(OCCc3cccc(-c4ccc(F)cc4)c3)cc2)CCOCC1
2. COCCN1CCC(C(=O)NO)(S(=O)(=O)c2ccc(OCCCc3nc(-c4ccc(CC(C)C)cc4)no3)cc2)CC1
3. O=C(NO)C1(S(=O)(=O)c2ccc(OCCc3cccc(-c4cc(Cl)cc(Cl)c4)c3)cc2)CCOCC1

1. > 10 µM
2. > 10 µM
3. > 10 µM

Just for reference, patent US20040024024A1 is where these values come from.
